Target: human α4β7 (Homo sapiens, UniProt P13612+P26010)
Construct: expressed in transfected cells
Sequence (P13612 34-1032): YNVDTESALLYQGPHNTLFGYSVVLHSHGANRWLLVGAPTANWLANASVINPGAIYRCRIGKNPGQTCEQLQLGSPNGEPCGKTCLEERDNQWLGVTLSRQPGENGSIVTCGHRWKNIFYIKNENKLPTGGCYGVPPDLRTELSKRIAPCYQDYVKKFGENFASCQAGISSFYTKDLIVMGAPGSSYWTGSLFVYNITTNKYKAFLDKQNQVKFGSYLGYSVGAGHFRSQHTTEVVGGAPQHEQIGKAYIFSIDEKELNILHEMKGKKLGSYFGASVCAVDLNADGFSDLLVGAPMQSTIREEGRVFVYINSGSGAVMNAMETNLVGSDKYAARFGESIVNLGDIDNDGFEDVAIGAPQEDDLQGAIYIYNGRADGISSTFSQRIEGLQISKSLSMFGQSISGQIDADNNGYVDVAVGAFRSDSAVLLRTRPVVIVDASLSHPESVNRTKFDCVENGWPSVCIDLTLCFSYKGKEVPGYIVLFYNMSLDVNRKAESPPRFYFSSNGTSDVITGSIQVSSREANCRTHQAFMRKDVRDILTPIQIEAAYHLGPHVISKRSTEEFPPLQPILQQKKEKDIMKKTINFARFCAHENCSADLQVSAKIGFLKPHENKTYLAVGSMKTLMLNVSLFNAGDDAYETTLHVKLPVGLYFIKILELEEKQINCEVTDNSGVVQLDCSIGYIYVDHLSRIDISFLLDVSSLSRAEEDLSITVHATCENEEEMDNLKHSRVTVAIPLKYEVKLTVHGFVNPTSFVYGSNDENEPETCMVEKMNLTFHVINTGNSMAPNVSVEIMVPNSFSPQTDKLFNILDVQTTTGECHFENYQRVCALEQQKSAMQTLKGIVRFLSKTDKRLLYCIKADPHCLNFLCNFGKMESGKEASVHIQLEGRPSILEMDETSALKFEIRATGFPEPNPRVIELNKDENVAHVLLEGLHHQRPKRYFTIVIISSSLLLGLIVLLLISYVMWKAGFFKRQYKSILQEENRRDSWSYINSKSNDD
Sequence (P26010 20-798): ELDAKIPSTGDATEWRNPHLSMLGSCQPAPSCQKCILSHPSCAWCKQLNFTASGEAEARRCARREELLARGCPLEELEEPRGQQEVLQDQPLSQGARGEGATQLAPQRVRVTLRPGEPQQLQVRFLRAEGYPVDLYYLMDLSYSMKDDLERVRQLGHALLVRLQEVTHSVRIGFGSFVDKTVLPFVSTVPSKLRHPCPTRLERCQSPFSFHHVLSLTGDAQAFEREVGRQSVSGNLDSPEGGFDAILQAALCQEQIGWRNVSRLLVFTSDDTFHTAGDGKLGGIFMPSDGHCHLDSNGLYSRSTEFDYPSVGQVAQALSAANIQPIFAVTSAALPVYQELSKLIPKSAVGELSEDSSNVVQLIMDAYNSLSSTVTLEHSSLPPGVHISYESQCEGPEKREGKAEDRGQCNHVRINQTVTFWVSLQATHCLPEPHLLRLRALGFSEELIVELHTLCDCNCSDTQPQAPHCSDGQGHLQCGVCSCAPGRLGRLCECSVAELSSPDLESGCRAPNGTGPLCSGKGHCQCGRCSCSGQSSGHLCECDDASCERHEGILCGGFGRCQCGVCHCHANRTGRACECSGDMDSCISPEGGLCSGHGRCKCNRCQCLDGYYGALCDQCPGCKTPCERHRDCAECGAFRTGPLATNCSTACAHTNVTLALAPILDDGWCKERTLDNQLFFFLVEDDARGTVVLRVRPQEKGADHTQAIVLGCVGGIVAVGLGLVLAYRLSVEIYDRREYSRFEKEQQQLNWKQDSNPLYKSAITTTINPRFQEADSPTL
Experiment: α4β7-K562 Cell Adhesion Assay (α4β7 Mediated Adhesion/VCAM-1)
Assay type: cell-based
Conditions: K562 cells expressing human α4β7 on recombinant hVCAM-1; read-out: α4β7 IC50
Below, each of the compounds is paired with its reported IC50 value.
Put your answer as a value accompanied by its unit after it.

These recorded examples may help you get a feel for the data.
compound | IC50
O=C(Nc1ccc(CC(NC(=O)C2C3CCC(CC3)N2C(=O)Nc2ccc(Cl)cc2)C(=O)O)cc1)c1c(Cl)cncc1Cl (stereo not shown) | 743 nM
CC(C)(C)CC(=O)N1C2CCC(CC2)C1C(=O)NC(Cc1ccc(NC(=O)c2c(Cl)cncc2Cl)cc1)C(=O)O (stereo not shown) [Cpd 27] | 834 nM
CN(C)c1ccc(CC(=O)N2C3CCC(CC3)C2C(=O)NC(Cc2ccc(NC(=O)c3c(Cl)cncc3Cl)cc2)C(=O)O)cc1 (stereo not shown) | 23 nM

Now consider the entry below.
Noted IC50 for O=C(Nc1ccc(CC(NC(=O)C2C3CCC(CC3)N2C(=O)Nc2ccccc2Cl)C(=O)O)cc1)c1c(Cl)cncc1Cl (stereo not shown) , tested on human α4β7 (Homo sapiens, UniProt P13612+P26010): 670 nM
